System: BLT1 and BLT2 receptors
Experiment: Ca2+ flux assay for LTB4 antagonist assay (HL-60 FLIPR)
Format: cell-based, Human
Conditions: retinoic acid induced HL-60 cells endogenously expressing BLT1 and BLT2; inhibition of LTB4-induced Ca2+ flux; 30 min compound preincubation; read-out: LTB4 antagonism (HL-60 FLIPR)
endpoint: pIC50
The scale used: pIC50 is minus the common logarithm of the concentration in molar units.

{"columns": ["smiles-notation", "experimental-value"],
 "data": [
  ["Cc1ccc(-c2cc(OCCCCCCc3cccc(OCCCC(=O)O)c3CCC(=O)O)cc(C(=O)N(C)C)c2)cc1", 9.62]
]}

stdin: Fill in the blank: the reported pIC50 of O=C(O)CCCOc1cccc(CCCCCCOc2cc(C(=O)NC3CCC3)cc(-c3cccc(F)c3)c2)c1CCC(=O)O is ____.
stdout: 7.28

stdin: Try this compound too: O=C(O)CCCOc1cccc(CCCCCCOc2cc(C(=O)NC3CC3)cc(-c3ccc4c(c3)OCO4)c2)c1CCC(=O)O
stdout: 10.10

stdin: Try this compound too: CN(C)C(=O)c1cc(OCCCCCCc2cccc(OCCCC(=O)O)c2CCC(=O)O)cc(-c2ccc3c(c2)OCO3)c1
stdout: 10.00

stdin: Try this compound too: Cc1cscc1-c1cc(OCCCCCCc2cccc(OCCCC(=O)O)c2CCC(=O)O)cc(C(=O)N2CCN(C)CC2)c1
stdout: 7.33

Data credit: patent US7989454B2
